tested on: SK-MEL-28 melanoma; test: NCI-60 one-dose screen, 48 h (100 = growth as untreated, 0 = no growth, -100 = all killed); conditions: 10 µM unless noted
The panel holds about 83,000 compounds, 20% with a hit somewhere; the sample as a whole holds those more often. Activity calls are given as the source filed them. How the source made its calls: active means growth percent below 10; inactive means the rest.
ASSAY_ENDPOINT: growth

Examples with their reported growth follow.
Cc1cc2c(cc1C)[n+](Cc1ccc3ccccc3c1)cn2Cc1ccc2ccccc2c1 = -91.9% (active)
COc1cc(-c2nc3nc4sc(C)c(C)c4c(=O)n3[nH]2)cc(OC)c1OC = 87.6% (inactive)
CCOC(=O)C1=CCC(n2cc(C)c(=O)[nH]c2=O)O1 (stereo not given) = 112% (inactive)
FCc1ncc(-c2ccc(C(F)(F)F)cc2)c(NC2CCCCCC2)n1 = 33.6% [100 µM] (inactive)

Record COc1cccc(C2=NN(C(C)=O)C(c3cc(OC)c(OC)c(OC)c3)C2)c1 (stereo not given) / SK-MEL-28 melanoma, growth recorded as 40.9% (inactive)

###

test system: OVCAR-5 ovarian; experiment: NCI-60 one-dose screen, 48 h; settings: 10 µM unless noted
Compounds without any hit were thinned out: in the full panel of roughly 83,000, 20% have a hit. Calls of active or inactive are those of the source. Rule for the calls: active = growth percent below 10; inactive = the rest.
Outcomes you can answer with include only these: t (active), f (inactive)

CC[N+](CCCCCCCCCC[N+](CC)(c1ccccn1)c1ccccn1)(c1ccccn1)c1ccccn1 = f
CN1CCC[C@@H]1CCO[C@](C)(c1ccccc1)c1ccc(Cl)cc1 = f
CC12CCC3C(=CCc4cc(O)ccc43)C1CCC2=O (stereo not given) = f
COc1ccc(C(=O)COc2cccc(/C=C3\COc4ccc5ccccc5c4C3=O)c2)cc1 = f
CCCCCCCC[Si](OCC)(OCC)OCC = f
COc1ccc(NC(=O)c2ccc(-c3ccccc3)cc2)c(C(N)=O)c1 = f
CC(=O)N1N=C(c2ccc(Nc3nc(NCCO)nc(NCCO)n3)cc2)CC1c1ccc(Cl)cc1 (stereo not given) = f
COc1cc(/C=C2\CN(S(=O)(=O)c3ccc(C)cc3)C/C(=C\c3cc(CN4CCOCC4)c(O)c(OC)c3)C2=O)cc(CN2CCOCC2)c1O = t
O=C(COc1cccc(/C=C2\Oc3ccc4ccccc4c3C2=O)c1)c1ccc([N+](=O)[O-])cc1 = f
CSc1nc(N)c2c(n1)N(C)C=NS2(=O)=O = f

Req: Could you check what this test reported for N/C(=N\C(N)=N\c1nc2ccccc2s1)c1ccnc(Cl)c1 ?
Resp: f

Req: Assay result, entry CN(C)c1ccc(-c2nc3ncc(Br)cc3o2)cc1 — outcome?
Resp: f

Req: Assay result, entry Cc1ccc(S(=O)(=O)N2CCN(C(=O)CSc3nc4ccc(C)cc4[nH]3)CC2)cc1 — outcome?
Resp: f

###

tested on: OVCAR-3 ovarian; assay: NCI-60 one-dose screen, 48 h (100 = growth as untreated, 0 = no growth, -100 = all killed); conditions: 10 µM unless noted
This is part of a sample that, as a whole, favours compounds with a hit. Of some 83,000 tested, about 20% had one in any assay.
ASSAY_ENDPOINT: growth (%)
Lab book: enter the figure in %, no units written.

Some solved entries appear below for comparison.
CCOC(=O)N1CCC(N=C2CSc3nnc(-c4cc(C(F)(F)F)cc(C(F)(F)F)c4)n3N2)CC1 = 28.5
COC(=O)[C@H]1[C@H]2C[C@@H]3c4[nH]c5cc(OC)ccc5c4CCN3C[C@H]2C[C@@H](OC(=O)/C=C/c2cc(OC)c(OC)c(OC)c2)[C@@H]1OC = -42.8
Cc1sc2nc(N3CCCCC3)[nH]c(=O)c2c1C = 113
Clc1ccc2nc(CI)c(CI)nc2c1 = 65.4
Cc1ccc(S(=O)(=O)NCCN2c3nc4ccccc4cc3Sc3cc4ccccc4nc32)cc1 = 83.7
Cc1cc(C)nc(NS(=O)(=O)c2ccc(Nc3nc4nc(SCc5ccccc5)nc(-c5ccc(O)cc5)c4c(=O)[nH]3)cc2)n1 = 120
CC(=O)Nc1ccc(C(=O)COc2cccc(/C=C3\CCc4ccccc4C3=O)c2)cc1 = 238
O[N+]1=CC=CCC1=S.On1ccccc1=S.[Zn] = -97.4
Nc1nc2c(nnn2Cc2ccc(Cl)c(Cl)c2)c(=O)[nH]1 = 106
CN(C)c1ncnc2c1ncn2C1CCCCO1 (stereo not given) = 113

The value of growth measured for the compound O=C(COc1ccc(/C=C2\Oc3ccc4ccccc4c3C2=O)cc1)c1ccc([N+](=O)[O-])cc1 turned out to be 158

###

test system: TK-10 renal; assay: NCI-60 one-dose screen, 48 h (100 = growth as untreated, 0 = no growth, -100 = all killed); details: 10 µM unless noted
About 83,000 compounds went through this panel and 20% of them were active in at least one assay; those are over-represented in the sample as a whole. The source made the active and inactive calls. Rule for the calls: active = growth percent below 10; inactive = the rest.
# growth listing for each entry below

CC1CN(/N=C/c2ccc([N+](=O)[O-])o2)C(=N)O1 (centres undefined) = 105% (inactive)
COc1cc(/C=N/NC(=O)c2ccc(C(F)(F)F)nc2Nc2ccc(Cl)cc2C)ccc1O = 49.7% (inactive)

compound c1ccc(-c2nc(Nc3nccnn3)c3ccccc3n2)cc1 , growth observed: 155% (inactive)

Query O=c1ncc(-c2ccc(C(F)(F)F)cc2)c(NC2CCCCCC2)[nH]1 yields growth of 65.1% (inactive)

Entry Cc1ccc(C(NC(=O)c2ccccc2)c2ccc3cccnc3c2O)cc1 (centres undefined) — recorded growth = 16% (inactive)

Recorded result, COc1cc(C2CC(C3C(=O)N(C)C(=O)N(C)C3=O)=NN2c2cc(Cl)cc(Cl)c2)cc(OC)c1OC (centres undefined) , growth: 94.1% (inactive)

Reported growth ( COc1cc(/C=N/OC(=O)Nc2ccccc2)cc(OC)c1OC ) = 99% (inactive)

growth in this record for CN(C)CCC(=O)Nc1ccc(-n2cc(-c3cccc(NC(=S)Nc4cccc(-c5cn(-c6ccc(NC(=O)CCN(C)C)cc6)nn5)c4)c3)nn2)cc1 : 142% (inactive)

Lab book: growth of COc1cc2c(cc1OC)C(=O)/C(=C/c1cccc(OCC(=O)c3ccccc3)c1)C2 noted as 122% (inactive)

###

tested on: HS 578T breast; assay: NCI-60 one-dose screen, 48 h; settings: 10 µM unless noted
About 83,000 compounds went through this panel and 20% of them were active in at least one assay; those are over-represented in the sample as a whole. Active and inactive are the calls of the source. Rule for the calls: active = growth percent below 10; inactive = the rest.
Output constraint: value belongs to YES (active), NO (inactive)

Req: State the result this test recorded for CCCCN=C(N)c1ccc(OCCSCCOc2ccc(C(N)=NCCCC)cc2)cc1 .
Resp: NO

Req: What did the test return for CC[n+]1c(/C=C/c2ccc(N3CCCC3)cc2)cccc1/C=C/c1ccc(N2CCCC2)cc1 ?
Resp: YES

Req: Dear all, I need the recorded test outcome for COc1cc(/C=C2\CN(S(=O)(=O)c3ccc(C)cc3)C/C(=C\c3cc(CN4CCOCC4)c(O)c(OC)c3)C2=O)cc(CN2CCOCC2)c1O , thank you.
Resp: NO

Req: Field: outcome | Entry: COc1ccc(CC(=O)Nc2nn3c(-c4cc(C(F)(F)F)cc(C(F)(F)F)c4)nnc3s2)cc1
Resp: NO

###

system: SW-620 colon; experiment: NCI-60 one-dose screen, 48 h; conditions: 10 µM unless noted
The panel holds about 83,000 compounds, 20% with a hit somewhere; the sample as a whole holds those more often. Calls of active or inactive are those of the source. How the source made its calls: active means growth percent below 10; inactive means the rest.
API: response.call in active, inactive

Worked cases, answers included:
O=C(/C=C/c1c(-c2ccccc2)[nH]c2ccccc12)S(=O)(=O)c1ccccc1 = inactive
CN1CCC[C@@H]1CCO[C@](C)(c1ccccc1)c1ccc(Cl)cc1 = inactive
COc1ccc(C2CC(c3ccc(Nc4ccnc5cc(Cl)ccc45)cc3)=NN2C(C)=O)cc1 (stereo not given) = inactive
CC1CN(CC(O)c2ccc(Br)cc2)CCO1 (stereo not given) = inactive
NC(=O)c1cc(Br)cc(Br)c1NS(=O)(=O)c1ccccc1 = inactive
COc1ccc(C(=O)COc2cccc(/C=C3\COc4ccc5ccccc5c4C3=O)c2)cc1 = inactive

Req: So what was the verdict on COc1ccc(C2=NN(C=O)C(c3cccc(Nc4ccnc5cc(Cl)ccc45)c3)C2)cc1 (stereo not given) in this test?
Resp: inactive

Req: // return assay outcome for O=C(COc1ccc(/C=C2\Cc3ccccc3C2=O)cc1)c1ccc(Cl)cc1
Resp: inactive

Req: Please let me know the test result on file for O=C(/C=C/c1cccc(O)c1)c1cccc(-n2cc(-c3ccccc3)[nH]c2=O)c1 .
Resp: active

Req: Which outcome was entered for the molecule O=c1[nH]c(N2CCC(Cc3ccccc3)CC2)nc2sc3c(c12)CCCC3 in this test?
Resp: inactive

###

test system: HCT-116 colon; assay: NCI-60 one-dose screen, 48 h; conditions: 10 µM unless noted
This is part of a sample that, as a whole, favours compounds with a hit. Of some 83,000 tested, about 20% had one in any assay. The source made the active and inactive calls. The calls were made as follows: active = growth percent below 10; inactive = the rest.
The categories you may choose from are active, inactive

Would you please look over these solved cases?
CCSc1nc(Nc2ccc(S(=O)(=O)Nc3ccon3)cc2)c(C#N)c(-c2cccc(Br)c2)n1 = inactive
O=C(COc1cccc(/C=C2\Oc3ccc4ccccc4c3C2=O)c1)c1ccc([N+](=O)[O-])cc1 = inactive
C=CCN(/C=C/CN(CC=C)CC=C)CC=C = inactive
COc1cc2c(cc1OC)C(CC1(O)CCCCC1)N(S(=O)(=O)c1ccc(C)cc1)CC2 (stereo not given) = active
Nc1ccc(N=Nc2ccccc2)cc1[N+](=O)[O-] = inactive
Oc1c(Cl)cc(Cl)c(Cl)c1Cc1c(O)c(Cl)cc(Cl)c1Cl = active
O=C1/C(=C/c2cccc(Cl)c2)CCc2ccccc21 = inactive
O=C1/C=C/[C@@H](O)[C@@H]2C[C@@H](O)C[C@H]2/C=C/CCC[C@H](CO)O1 = active
C=C1CCC2C(C)(COC(=O)CC)C(OC(=O)CC)CCC2(C)C1C/C=C1/C(=O)OCC1OC(=O)CC (stereo not given) = active
Nc1nc(Nc2ccccc2SSc2ccccc2Nc2nc(N)nc(-c3cccc(Cl)c3)n2)nc(-c2cccc(Cl)c2)n1 = inactive

Req: Please let me know the test result on file for CN1CCN(CCCOc2ccc3ncnc(Nc4ccc(OCc5cccc(F)c5)c(Cl)c4)c3c2)CC1 .
Resp: active

Req: Please let me know the test result on file for CC1=C([Se]CC(OC(=O)[C@@H](CSSC(C)(C)C)NC(=O)C(C)(C)C)C(=O)NCCCCCC(=O)OCc2ccccc2)C(=O)c2ccccc2C1=O (stereo not given in full) .
Resp: active

Req: For this molecule, state the assay outcome: O=C(O)CCC(=O)OC[C@@H](NC(=O)C(Cl)Cl)[C@H](O)c1ccc([N+](=O)[O-])cc1
Resp: inactive

Req: Call for entry c1ccc(-c2oc(-c3ccccc3)c3ccccc23)cc1 :
Resp: inactive

Req: Tell me the recorded outcome of this test for O=c1c2ccccc2c2nccn2c2cc(Cl)ccc12 .
Resp: inactive

Req: What did the test return for COC(=O)C1CCN(S(=O)(=O)c2ccc(-c3ccccc3)cc2)CC1 ?
Resp: inactive

Req: Per the records of this test, what outcome belongs to C(=C1c2ccccc2-c2ccccc21)c1ccccn1 ?
Resp: inactive

Req: Would you mind telling me which call this test gave C[C@]12CC[C@H](O)CC1=CC[C@@H]1[C@@H]2CC[C@]2(C)C(c3cccnc3)=CC[C@@H]12 ?
Resp: inactive

Req: Which outcome did this test record for the molecule NC(=O)NS(=O)(=O)c1ccc(N2N=C(C(F)(F)F)CC2c2cc(C(F)(F)F)cc(C(F)(F)F)c2)cc1 (stereo not given) ?
Resp: inactive

Req: Recorded test call requested for CC(C)=CCNc1ncnc2c1ncn2C1OC(COP(=O)(O)O)C(O)C1O (stereo not given)
Resp: inactive

The measurements presented in this section are drawn from PubChem BioAssay (NCI).
